- System: PPARg:RXRa IVT, anti-PPARg (NR concentration 270 nM, RXRa partner concentration 90 nM)
- assay-method-text: PBM binding z-score (relative to random genomic background probes); higher = stronger binding; sequences stand for … in GC…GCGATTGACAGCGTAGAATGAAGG
assay-endpoint: PBM binding z-score

[
  {
    "biopolymer-sequence": "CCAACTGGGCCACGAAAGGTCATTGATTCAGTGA",
    "assay-endpoint": "PBM binding z-score",
    "observed": 5.79
  },
  {
    "biopolymer-sequence": "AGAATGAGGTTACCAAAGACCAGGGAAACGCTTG",
    "assay-endpoint": "PBM binding z-score",
    "observed": 3.33
  },
  {
    "biopolymer-sequence": "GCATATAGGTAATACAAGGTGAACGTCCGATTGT",
    "assay-endpoint": "PBM binding z-score",
    "observed": 3.63
  },
  {
    "biopolymer-sequence": "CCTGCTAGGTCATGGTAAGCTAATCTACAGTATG",
    "assay-endpoint": "PBM binding z-score",
    "observed": 3.92
  },
  {
    "biopolymer-sequence": "TCTCGGAGGACCCGAAAGGTCAGAGCTCGACATC",
    "assay-endpoint": "PBM binding z-score",
    "observed": 0.853
  },
  {
    "biopolymer-sequence": "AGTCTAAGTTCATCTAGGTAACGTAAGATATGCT",
    "assay-endpoint": "PBM binding z-score",
    "observed": 2.11
  },
  {
    "biopolymer-sequence": "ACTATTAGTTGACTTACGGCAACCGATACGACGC",
    "assay-endpoint": "PBM binding z-score",
    "observed": 0.189
  },
  {
    "biopolymer-sequence": "TCTTGTAGACCAAAGGTTAAGAAAGCCGAAGCCT",
    "assay-endpoint": "PBM binding z-score",
    "observed": 3.9
  },
  {
    "biopolymer-sequence": "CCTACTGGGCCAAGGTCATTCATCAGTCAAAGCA",
    "assay-endpoint": "PBM binding z-score",
    "observed": 4.59
  },
  {
    "biopolymer-sequence": "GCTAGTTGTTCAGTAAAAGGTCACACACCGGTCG",
    "assay-endpoint": "PBM binding z-score",
    "observed": 1.95
  },
  {
    "biopolymer-sequence": "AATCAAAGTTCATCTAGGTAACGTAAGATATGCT",
    "assay-endpoint": "PBM binding z-score",
    "observed": 2.87
  },
  {
    "biopolymer-sequence": "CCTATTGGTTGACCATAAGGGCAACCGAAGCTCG",
    "assay-endpoint": "PBM binding z-score",
    "observed": 0.135
  },
  {
    "biopolymer-sequence": "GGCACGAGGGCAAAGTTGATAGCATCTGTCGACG",
    "assay-endpoint": "PBM binding z-score",
    "observed": 2.98
  },
  {
    "biopolymer-sequence": "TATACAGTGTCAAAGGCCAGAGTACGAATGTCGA",
    "assay-endpoint": "PBM binding z-score",
    "observed": 2.04
  },
  {
    "biopolymer-sequence": "GCCAGCAGGCCATTTGGGTCACTCAATGACGGGC",
    "assay-endpoint": "PBM binding z-score",
    "observed": 1.48
  },
  {
    "biopolymer-sequence": "ACTATTAGTTGACCTAGGGCAACCGATACGACGC",
    "assay-endpoint": "PBM binding z-score",
    "observed": 2.56
  },
  {
    "biopolymer-sequence": "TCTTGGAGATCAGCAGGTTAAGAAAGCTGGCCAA",
    "assay-endpoint": "PBM binding z-score",
    "observed": -0.4
  },
  {
    "biopolymer-sequence": "CCTCGGAGGACAACAGGAGGTCAGGGCTGCCAGA",
    "assay-endpoint": "PBM binding z-score",
    "observed": 0.479
  },
  {
    "biopolymer-sequence": "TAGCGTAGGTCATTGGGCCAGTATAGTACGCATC",
    "assay-endpoint": "PBM binding z-score",
    "observed": 3.26
  },
  {
    "biopolymer-sequence": "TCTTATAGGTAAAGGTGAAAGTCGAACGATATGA",
    "assay-endpoint": "PBM binding z-score",
    "observed": 3.7
  },
  {
    "biopolymer-sequence": "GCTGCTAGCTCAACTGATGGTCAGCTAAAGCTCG",
    "assay-endpoint": "PBM binding z-score",
    "observed": -0.817
  },
  {
    "biopolymer-sequence": "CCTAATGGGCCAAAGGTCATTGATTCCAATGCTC",
    "assay-endpoint": "PBM binding z-score",
    "observed": 6.02
  },
  {
    "biopolymer-sequence": "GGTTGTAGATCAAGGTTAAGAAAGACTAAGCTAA",
    "assay-endpoint": "PBM binding z-score",
    "observed": 1.03
  },
  {
    "biopolymer-sequence": "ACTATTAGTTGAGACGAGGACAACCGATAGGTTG",
    "assay-endpoint": "PBM binding z-score",
    "observed": 0.208
  },
  {
    "biopolymer-sequence": "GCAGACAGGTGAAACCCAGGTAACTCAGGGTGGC",
    "assay-endpoint": "PBM binding z-score",
    "observed": 0.476
  },
  {
    "biopolymer-sequence": "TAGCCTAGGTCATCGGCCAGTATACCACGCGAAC",
    "assay-endpoint": "PBM binding z-score",
    "observed": 2.98
  },
  {
    "biopolymer-sequence": "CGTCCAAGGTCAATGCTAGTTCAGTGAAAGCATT",
    "assay-endpoint": "PBM binding z-score",
    "observed": 3.31
  },
  {
    "biopolymer-sequence": "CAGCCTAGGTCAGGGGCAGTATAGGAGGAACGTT",
    "assay-endpoint": "PBM binding z-score",
    "observed": 1.71
  },
  {
    "biopolymer-sequence": "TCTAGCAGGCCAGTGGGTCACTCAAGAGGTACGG",
    "assay-endpoint": "PBM binding z-score",
    "observed": 3.66
  },
  {
    "biopolymer-sequence": "AGTCAAAGATCATCTAGGTAACGTAAGATATGCT",
    "assay-endpoint": "PBM binding z-score",
    "observed": 2.23
  },
  {
    "biopolymer-sequence": "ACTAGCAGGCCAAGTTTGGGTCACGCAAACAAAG",
    "assay-endpoint": "PBM binding z-score",
    "observed": 1.63
  },
  {
    "biopolymer-sequence": "AGCTCTAGGTAAAGATAGTTCAGTGAATGCAAAT",
    "assay-endpoint": "PBM binding z-score",
    "observed": 1.19
  },
  {
    "biopolymer-sequence": "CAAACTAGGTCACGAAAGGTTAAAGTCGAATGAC",
    "assay-endpoint": "PBM binding z-score",
    "observed": 9.07
  },
  {
    "biopolymer-sequence": "CTACCAAGGTGAACAAGGTCGTTTATTACTATTC",
    "assay-endpoint": "PBM binding z-score",
    "observed": 2.5
  },
  {
    "biopolymer-sequence": "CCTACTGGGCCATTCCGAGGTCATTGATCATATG",
    "assay-endpoint": "PBM binding z-score",
    "observed": 4.34
  },
  {
    "biopolymer-sequence": "CTACCAAGGTGACCAAGGTCGTTGATTACTATTC",
    "assay-endpoint": "PBM binding z-score",
    "observed": 2.32
  },
  {
    "biopolymer-sequence": "ATATGTAGGCTACATCCGGGTCATTCAGGCTATG",
    "assay-endpoint": "PBM binding z-score",
    "observed": 5.66
  },
  {
    "biopolymer-sequence": "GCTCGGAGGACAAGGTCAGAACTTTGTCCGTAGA",
    "assay-endpoint": "PBM binding z-score",
    "observed": 0.754
  },
  {
    "biopolymer-sequence": "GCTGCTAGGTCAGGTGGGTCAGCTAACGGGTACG",
    "assay-endpoint": "PBM binding z-score",
    "observed": 3.22
  },
  {
    "biopolymer-sequence": "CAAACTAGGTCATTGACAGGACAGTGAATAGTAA",
    "assay-endpoint": "PBM binding z-score",
    "observed": 8.3
  },
  {
    "biopolymer-sequence": "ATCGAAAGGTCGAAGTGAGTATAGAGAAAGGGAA",
    "assay-endpoint": "PBM binding z-score",
    "observed": 1.01
  },
  {
    "biopolymer-sequence": "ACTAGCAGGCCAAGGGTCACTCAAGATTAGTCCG",
    "assay-endpoint": "PBM binding z-score",
    "observed": 4.06
  },
  {
    "biopolymer-sequence": "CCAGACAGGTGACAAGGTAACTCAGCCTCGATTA",
    "assay-endpoint": "PBM binding z-score",
    "observed": 1.61
  },
  {
    "biopolymer-sequence": "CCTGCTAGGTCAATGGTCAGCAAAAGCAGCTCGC",
    "assay-endpoint": "PBM binding z-score",
    "observed": 3.94
  }
]
